Target: KRAS G12S (Homo sapiens, UniProt P01116+P62937, G12S)
Sequence (P01116 1-169 isoform P01116-2 G12S limits assumed): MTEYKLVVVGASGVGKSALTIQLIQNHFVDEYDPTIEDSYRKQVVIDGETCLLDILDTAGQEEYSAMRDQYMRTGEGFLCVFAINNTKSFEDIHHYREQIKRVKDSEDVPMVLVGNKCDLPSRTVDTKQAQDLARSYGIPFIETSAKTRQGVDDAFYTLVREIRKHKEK
Sequence (P62937 whole entry): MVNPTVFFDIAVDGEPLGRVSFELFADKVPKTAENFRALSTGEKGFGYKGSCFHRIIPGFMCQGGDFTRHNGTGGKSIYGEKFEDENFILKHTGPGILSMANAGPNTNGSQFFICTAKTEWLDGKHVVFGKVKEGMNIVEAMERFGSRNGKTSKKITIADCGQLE
Assay: Disruption of BRAF RBD interaction with Ras (FRET / MOA assay, with Cyclophilin A)
Type: biochemical
Conditions: KRAS G12S FRET data, IC50
value kind: IC50

CCn1c(-c2cnccc2COC)c2c3cc(ccc31)-c1cc(O)cc(c1)C[C@H](NC(=O)[C@H](C(C)C)N(C)C(=O)CO)C(=O)N1CCC[C@H](N1)C(=O)OCC(C)(C)C2 | 100 to 1000 nM
CCn1c(-c2cnccc2COC)c2c3cc(ccc31)-c1cc(O)cc(c1)C[C@H](NC(=O)[C@H](C(C)C)N(C)C(=O)[C@H]1CCN(S(C)(=O)=O)C1)C(=O)N1CCC[C@H](N1)C(=O)OCC(C)(C)C2 | 100 to 1000 nM

Can you share its IC50? I mean this compound: CCn1c(-c2cccnc2[C@H](C)OC)c2c3cc(ccc31)-c1csc(n1)C[C@H](NC(=O)[C@H](C(C)C)N(C)C(=O)OC)C(=O)N1CCC[C@H](N1)C(=O)OCC(C)(C)C2 1000 to 10000 nM
